- study.system: UniProt P47900
- method.description: Binding Assay A: membrane binding assay, [33P] 2MeS-ADP
parameter.measured: pKi
// pKi: -log10(molar conc.)

Query block: Read off the recorded pKi for CC(C)(C)CN1CCC2(CC1)CN(c1ccccc1NC(=O)Nc1nc3ccc(Cl)nc3s1)c1c(O)ccc(Cl)c12
Result block: 8.48

====

- study.system: cloned human P2Y1 receptors (Homo sapiens (Human), UniProt P47900)
- Sequence (P47900 whole entry): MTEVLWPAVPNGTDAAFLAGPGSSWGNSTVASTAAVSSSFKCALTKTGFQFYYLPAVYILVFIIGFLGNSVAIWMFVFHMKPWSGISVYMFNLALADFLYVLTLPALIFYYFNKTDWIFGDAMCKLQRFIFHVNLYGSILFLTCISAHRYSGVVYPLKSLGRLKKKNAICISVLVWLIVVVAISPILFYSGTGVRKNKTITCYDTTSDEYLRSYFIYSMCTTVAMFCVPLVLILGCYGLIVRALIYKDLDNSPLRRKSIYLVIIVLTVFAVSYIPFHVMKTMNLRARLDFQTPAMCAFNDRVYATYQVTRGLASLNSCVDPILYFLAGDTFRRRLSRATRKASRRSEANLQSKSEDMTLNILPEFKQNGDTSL
- method.description: Binding Assay B: Scintillation Proximity Assay (SPA) for P2Y1 binding
- assay.conditions: SPA, [33P] 2MeS-ADP displacement; read-out: P2Y1 Ki (nM) using binding assay B
Structures can show the parent of a compound that is named as a salt.
Known Ki of a selection of molecules
Value expressed in nM; do not type the unit.

See these solved cases before continuing.
molecule	study.system	units.of.measure	Ki
CC(C)(C)CN1CCC2(CC1)CN(c1ccccc1NC(=O)Nc1ccc(F)cc1F)c1c(O)ccc(C(F)(F)F)c12	cloned human P2Y1 receptors (Homo sapiens (Human), UniProt P47900)	nM	3.2
COC(=O)c1ccc(O)c2c1C1(CCN(CC(C)(C)C)CC1)CN2c1ccccc1NC(=O)Nc1nc2ccc(F)cc2s1	cloned human P2Y1 receptors (Homo sapiens (Human), UniProt P47900)	nM	8.7

Query block: Note Ki for the molecule shown: CC(C)(C)CN1CCC2(CC1)CN(c1ccc(C#N)cc1NC(=O)Nc1nc3ccc(F)cc3s1)c1c(O)ccc(Cl)c12
Result block: 29.4

Query block: Please report the measured Ki for CC(C)(C)CN1CCC2(CC1)CN(c1ccccc1NC(=O)Nc1ccc(C(F)(F)F)cc1)c1c(O)ccc(Cl)c12
Result block: 6.4

Query block: Look up Ki of CC(C)(C)CN1CCC2(CC1)CN(c1ccccc1NC(=O)Nc1ccc(C(F)(F)F)cc1)c1c(O)ccc(F)c12 and report it.
Result block: 7.2

Query block: Look up and report measured Ki for this entry: CCSc1nsc(NC(=O)Nc2ccccc2N2CC3(CCN(CC(C)(C)C)CC3)c3c(Cl)ccc(O)c32)n1
Result block: 7.3

Query block: Specify Ki for CC(C)(C)CN1CCC2(CC1)CN(c1ccccc1NC(=O)Nc1ccc(C3CCCN3CC(C)(C)C)cc1)c1c(O)ccc(Cl)c12 (stereo not shown) and stop.
Result block: 12.4

Query block: Supply measured Ki of CC(C)(C)CN1CCC2(CC1)CN(c1ccccc1NC(=O)Nc1nc3ccc(Cl)cc3s1)c1c(O)ccc(-c3nc4ccc(F)cc4s3)c12 in your reply.
Result block: 18.4

Query block: Supply Ki value. Item: CC(C)(C)CN1CCC2(CC1)CN(c1ccccc1NC(=O)Nc1nc3ccc([N+](=O)[O-])cc3s1)c1c(O)ccc(Cl)c12 [Example 51, TFA]
Result block: 10.8

Query block: Specify Ki for CN(C)S(=O)(=O)c1ccc(O)c2c1C1(CCN(CC(C)(C)C)CC1)CN2c1ccccc1NC(=O)Nc1ccc(OC(F)(F)F)cc1 and stop.
Result block: 5.3

Query block: Answer with reported Ki of CC(C)(C)CN1CCC2(CC1)CN(c1ccccc1NC(=O)Nc1nc3c(s1)CCC3)c1c(O)ccc(Cl)c12 [Example 46, TFA]
Result block: 6.2

Query block: Tell me measured Ki for CCN(CC)S(=O)(=O)c1ccc(O)c2c1C1(CCN(CC(C)(C)C)CC1)CN2c1ccccc1NC(=O)Nc1ccc(C(C)(C)C)cc1 [Example 90, trifluoroacetic acid salt] please.
Result block: 3.5

Query block: Read the entry COc1ccc2nc(NC(=O)Nc3ccccc3N3CC4(CCN(CC(C)(C)C)CC4)c4c(Cl)ccc(O)c43)sc2c1 [Example 47, TFA] and write its reported Ki.
Result block: 9.4

Origin of values: patent US9428504B2
